experimental details: Acute toxicity in Wistar rat assessed as mortality at 100 mg/kg,po observed after 24 hrs
Assay type: organism-based
particulars: in vivo
readout type: mortality at 24 h (%)

structure notation	measured value
CC(=O)c1cccc(N/C=C/C(=O)c2cc3ccccc3o2)c1	25

* * *

experimental details: Antioxidant activity assessed as DPPH radical scavenging activity at 0.01 ug/ml incubated for 1 hr under dark condition by absorbance based assay relative to control
Assay type: functional
particulars: dose 0.01 µg/ml
Would you mind labelling by Activity? At or over 30% is condition met, under is condition not met.

compound	assigned class
O=C(/C=C/Nc1ccc(Cl)cc1)c1cc2ccccc2o1	condition not met
CC(=O)c1ccc(N/C=C/C(=O)c2cc3ccccc3o2)cc1	condition not met
COc1cc2c(cc1OC)C(=O)C(CC1CCN(Cc3ccccc3)CC1)C2 (stereo unspecified)	condition not met
CN(C)/C=C/C(=O)c1cc2ccccc2o1	condition not met
CC(=O)c1cccc(N/C=C/C(=O)c2cc3ccccc3o2)c1	condition met
NS(=O)(=O)c1ccc(N/C=C/C(=O)c2cc3ccccc3o2)cc1	condition not met
O=C(/C=C/Nc1ccc(Br)cc1)c1cc2ccccc2o1	condition not met
Cc1cc(NS(=O)(=O)c2ccc(N/C=C/C(=O)c3cc4ccccc4o3)cc2)no1	condition met
O=C(O)c1cccc(N/C=C/C(=O)c2cc3ccccc3o2)c1	condition not met
O=C(/C=C/Nc1ccccc1C(=O)O)c1cc2ccccc2o1	condition not met
O=C1O[C@H]([C@@H](O)CO)C(O)=C1O	condition met

* * *

experimental details: Antioxidant activity assessed as DPPH radical scavenging activity at 0.01 ug/ml incubated for 1 hr under dark condition by absorbance based assay relative to control
Type: functional
particulars: dose 0.01 µg/ml
Assign met whenever Activity does not fall below 20%; assign not met whenever it does.

structure notation	assigned class
O=C(/C=C/Nc1cccc([N+](=O)[O-])c1)c1cc2ccccc2o1	met
Cc1ccc(N/C=C/C(=O)c2cc3ccccc3o2)cc1	met
O=C(/C=C/Nc1cccc(Br)c1)c1cc2ccccc2o1	not met
O=C(/C=C/Nc1ccc(S(=O)(=O)Nc2ccccn2)cc1)c1cc2ccccc2o1	not met
N=C(N)NS(=O)(=O)c1ccc(N/C=C/C(=O)c2cc3ccccc3o2)cc1	met

* * *

Measured IC50 of individual entries
test target: Acetylcholinesterase (Homo sapiens, UniProt P22303)
Sequence (P22303 whole entry): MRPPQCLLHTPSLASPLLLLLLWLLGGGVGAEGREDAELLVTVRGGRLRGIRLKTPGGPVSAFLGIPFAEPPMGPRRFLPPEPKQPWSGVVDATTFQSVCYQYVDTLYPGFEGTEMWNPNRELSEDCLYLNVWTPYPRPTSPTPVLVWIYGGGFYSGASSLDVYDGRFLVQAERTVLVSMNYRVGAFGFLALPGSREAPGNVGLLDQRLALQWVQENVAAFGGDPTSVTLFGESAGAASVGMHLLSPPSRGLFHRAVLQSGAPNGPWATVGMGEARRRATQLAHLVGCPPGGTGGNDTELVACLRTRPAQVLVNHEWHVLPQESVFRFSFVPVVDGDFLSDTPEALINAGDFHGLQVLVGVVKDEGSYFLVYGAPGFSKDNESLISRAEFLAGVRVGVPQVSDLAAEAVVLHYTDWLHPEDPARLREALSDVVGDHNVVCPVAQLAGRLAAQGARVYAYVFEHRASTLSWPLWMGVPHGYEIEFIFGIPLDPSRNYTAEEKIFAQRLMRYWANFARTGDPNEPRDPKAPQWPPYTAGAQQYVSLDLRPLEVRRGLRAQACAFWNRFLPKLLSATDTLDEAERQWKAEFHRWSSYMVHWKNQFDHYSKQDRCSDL

structure notation	IC50 / nM
O=C(/C=C/Nc1ccccc1O)c1cc2ccccc2o1	308
CC(=O)c1cccc(N/C=C/C(=O)c2cc3ccccc3o2)c1	190
O=C(/C=C/Nc1ccc(F)cc1)c1cc2ccccc2o1	487

The measurements presented in this section are drawn from ChEMBL document CHEMBL5625253.
